Reference source for all entries: patent US20260035376A1

STUDY_SYSTEM: Avi-KRAS G12R (1-169) GppNHp/RAF1 RBD-3×FLAG (52-151) (Homo sapiens, UniProt P01116, G12R)
Construct: 50 nM Avi-KRAS G12R (1-169) GppNHp/RAF1 RBD-3×FLAG (52-151)
Sequence (P01116 1-169 isoform P01116-2 G12R limits assumed): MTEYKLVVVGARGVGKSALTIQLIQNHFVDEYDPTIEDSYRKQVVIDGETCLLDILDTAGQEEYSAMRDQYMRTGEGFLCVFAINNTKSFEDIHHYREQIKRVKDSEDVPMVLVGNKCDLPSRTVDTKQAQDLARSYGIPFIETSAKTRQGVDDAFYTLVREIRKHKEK
PROTOCOL_NOTES: Disrupting RAS-effector binding HTRF assay, Raf1 RBD-KRAS G12R-GppNHp
PROTOCOL_CONDITIONS: PPI HTRF, 50 nM Avi-KRAS G12R GppNHp, compound titration 30-0.0045 μM; read-out: Raf1 RBD-KRAS G12R-GppNHp disruption
EXPERIMENTAL_ENDPOINT: IC50

Examples with their reported IC50 follow.
1. CN1CCC(COc2nc(N3CC4CCC(C3)N4)c3cc(C(F)(F)F)c(-c4ccc(F)c5sc(N)c(C#N)c45)c(F)c3n2)C1=O (centres unmarked)
1 to 10 µM
2. N#Cc1c(N)sc2c(F)ccc(-c3c(C(F)(F)F)cc4c(N5CC6CCC(C5)N6)nc(OCC5CCCCO5)nc4c3F)c12 (centres unmarked)
> 10 µM
3. N#Cc1c(N)sc2c(F)ccc(-c3c(C(F)(F)F)cc4c(N5C[C@H]6CC[C@@H](C5)N6)ncnc4c3F)c12
> 10 µM
4. N#Cc1c(N)sc2c(F)ccc(-c3c(C(F)(F)F)cc4c(N5CC6CCC(C5)N6)nc(OC5CC(O)C5)nc4c3F)c12 (centres unmarked) [Compound 11]
> 10 µM
5. CN(c1nc(OCC2CCOCC2)nc2c(F)c(-c3ccc(F)c4sc(N)c(C#N)c34)c(C(F)(F)F)cc12)[C@@H]1CCCNC1
> 10 µM

Kindly consider the entry below.
## Task For Avi-KRAS G12R (1-169) GppNHp/RAF1 RBD-3×FLAG (52-151) (Homo sapiens, UniProt P01116, G12R), provide IC50 of N#Cc1c(N)sc2c(F)ccc(-c3c(C(F)(F)F)cc4c(N5CC6CCC(C5)N6)nc(OCCC5CCOCC5)nc4c3F)c12 please.
## Result > 10 µM

---

STUDY_SYSTEM: Avi-KRAS G12R (1-169) GppNHp/RAF1 RBD-3×FLAG (52-151) (Homo sapiens, UniProt P01116, G12R)
Construct: 50 nM Avi-KRAS G12R (1-169) GppNHp/RAF1 RBD-3×FLAG (52-151)
PROTOCOL_NOTES: Disrupting RAS-effector binding HTRF assay, Raf1 RBD-KRAS G12R-GppNHp
PROTOCOL_CONDITIONS: PPI HTRF, 50 nM Avi-KRAS G12R GppNHp, compound titration 30-0.0045 μM; read-out: Raf1 RBD-KRAS G12R-GppNHp disruption
pIC50: −log10 of the molar value.
Listed compounds paired with reported pIC50

Examples with their reported pIC50 follow.
1) CC(=O)N(C)c1nc(N2C[C@H]3CC[C@@H](C2)N3)c2cc(C(F)(F)F)c(-c3ccc(F)c4sc(N)c(C#N)c34)c(F)c2n1 [Compound 21]
< 5.00
2) N#Cc1c(N)sc2c(F)ccc(-c3c(C(F)(F)F)cc4c(N5CC6CCC(C5)N6)nc(OC[C@@H](O)CO)nc4c3F)c12 [Compound 34]
< 5.00
3) CCCc1nc(N2CC3CCC(C2)N3)c2cc(C(F)(F)F)c(-c3ccc(F)c4sc(N)c(C#N)c34)c(F)c2n1 [Compound 23]
< 5.00
4) CN1C[C@H](COc2nc(N3CC4CCC(C3)N4)c3cc(C(F)(F)F)c(-c4ccc(F)c5sc(N)c(C#N)c45)c(F)c3n2)CC1=O [Compound 33]
< 5.00
5) CN1C(=O)CC[C@@H]1COc1nc(N2CC3CCC(C2)N3)c2cc(C(F)(F)F)c(-c3ccc(F)c4sc(N)c(C#N)c34)c(F)c2n1 [Compound 57]
< 5.00
6) N#Cc1c(N)sc2c(F)ccc(-c3c(C(F)(F)F)cc4c(N5CC6CCC(C5)N6)nc(OC[C@H](O)CO)nc4c3F)c12 [Compound 29]
5.00 to 6.00
7) N#Cc1c(N)sc2c(F)ccc(-c3c(C(F)(F)F)cc4c(N5CC6CCC(C5)N6)nc(OC5CCC5)nc4c3F)c12 [Compound 17]
< 5.00
8) N#Cc1c(N)sc2c(F)ccc(-c3c(C(F)(F)F)cc4c(N5CC6CCC(C5)N6)nc(OCCc5ccccc5)nc4c3F)c12 [Compound 13]
< 5.00
9) N#Cc1c(N)sc2c(F)ccc(-c3c(C(F)(F)F)cc4c(N5CC6CCC(C5)N6)nc(OCC5CCCO5)nc4c3F)c12 (centres unmarked) [Compound 45]
5.00 to 6.00
10) N#Cc1c(N)sc2c(F)ccc(-c3c(C(F)(F)F)cc4c(N5CC6CCC(C5)N6)nc(OCC5(CO)CC5)nc4c3F)c12 [Compound 18]
5.00 to 6.00

## Task For Avi-KRAS G12R (1-169) GppNHp/RAF1 RBD-3×FLAG (52-151) (Homo sapiens, UniProt P01116, G12R), provide pIC50 of CN(c1nc(OCC2CCOCC2)nc2c(F)c(-c3ccc(F)c4sc(N)c(C#N)c34)c(C(F)(F)F)cc12)C1CCNCC1 [Compound 61] please.
## Result < 5.00

## Task For Avi-KRAS G12R (1-169) GppNHp/RAF1 RBD-3×FLAG (52-151) (Homo sapiens, UniProt P01116, G12R), provide pIC50 of N#Cc1c(N)sc2c(F)ccc(-c3c(C(F)(F)F)cc4c(N5CC6CCC(C5)N6)nc(N5CCNC(=O)CC5)nc4c3F)c12 [Compound 25] please.
## Result < 5.00

## Task For Avi-KRAS G12R (1-169) GppNHp/RAF1 RBD-3×FLAG (52-151) (Homo sapiens, UniProt P01116, G12R), provide pIC50 of N#Cc1c(N)sc2c(F)ccc(-c3c(C(F)(F)F)cc4c(N5CC6CCC(C5)N6)nc(O)nc4c3F)c12 [Compound 43] please.
## Result < 5.00

## Task For Avi-KRAS G12R (1-169) GppNHp/RAF1 RBD-3×FLAG (52-151) (Homo sapiens, UniProt P01116, G12R), provide pIC50 of CN(c1ncnc2c(F)c(-c3ccc(F)c4sc(N)c(C#N)c34)c(C(F)(F)F)cc12)[C@@H]1CCNC1 [Compound 58] please.
## Result < 5.00

## Task For Avi-KRAS G12R (1-169) GppNHp/RAF1 RBD-3×FLAG (52-151) (Homo sapiens, UniProt P01116, G12R), provide pIC50 of N#Cc1c(N)sc2c(F)ccc(-c3c(C(F)(F)F)cc4c(N5CC6CCC(C5)N6)nc(N5CC[C@@H](O)C5)nc4c3F)c12 [Compound 6] please.
## Result < 5.00

## Task For Avi-KRAS G12R (1-169) GppNHp/RAF1 RBD-3×FLAG (52-151) (Homo sapiens, UniProt P01116, G12R), provide pIC50 of N#Cc1c(N)sc2c(F)ccc(-c3c(C(F)(F)F)cc4c(N5CC6CCC(C5)N6)nc(OC[C@H]5COCCO5)nc4c3F)c12 [Compound 40] please.
## Result 5.00 to 6.00

## Task For Avi-KRAS G12R (1-169) GppNHp/RAF1 RBD-3×FLAG (52-151) (Homo sapiens, UniProt P01116, G12R), provide pIC50 of N#Cc1c(N)sc2c(F)ccc(-c3c(C(F)(F)F)cc4c(N5CC6CCC(C5)N6)nc(OCC5CCOC5)nc4c3F)c12 (centres unmarked) [Compound 47] please.
## Result < 5.00

## Task For Avi-KRAS G12R (1-169) GppNHp/RAF1 RBD-3×FLAG (52-151) (Homo sapiens, UniProt P01116, G12R), provide pIC50 of N#Cc1c(N)sc2c(F)ccc(-c3c(C(F)(F)F)cc4c(N5CC6CCC(C5)N6)nc(OCC(CO)CO)nc4c3F)c12 [Compound 30] please.
## Result 5.00 to 6.00

## Task For Avi-KRAS G12R (1-169) GppNHp/RAF1 RBD-3×FLAG (52-151) (Homo sapiens, UniProt P01116, G12R), provide pIC50 of N#Cc1c(N)sc2c(F)ccc(-c3c(C(F)(F)F)cc4c(N5CC6CCC(C5)N6)nc(OCCc5ccon5)nc4c3F)c12 [Compound 42] please.
## Result 5.00 to 6.00

## Task For Avi-KRAS G12R (1-169) GppNHp/RAF1 RBD-3×FLAG (52-151) (Homo sapiens, UniProt P01116, G12R), provide pIC50 of CC(C)Oc1nc(N2CC3CCC(C2)N3)c2cc(C(F)(F)F)c(-c3ccc(F)c4sc(N)c(C#N)c34)c(F)c2n1 [Compound 8] please.
## Result < 5.00

## Task For Avi-KRAS G12R (1-169) GppNHp/RAF1 RBD-3×FLAG (52-151) (Homo sapiens, UniProt P01116, G12R), provide pIC50 of COc1c(Cl)c(-c2ccc(F)c3sc(N)c(C#N)c23)c(F)c2ncnc(N3CC4CCC(C3)N4)c12 [Compound 35] please.
## Result < 5.00

## Task For Avi-KRAS G12R (1-169) GppNHp/RAF1 RBD-3×FLAG (52-151) (Homo sapiens, UniProt P01116, G12R), provide pIC50 of N#Cc1c(N)sc2c(F)ccc(-c3c(C(F)(F)F)cc4c(N5CC6CCC(C5)N6)nc(OCCc5cnoc5)nc4c3F)c12 [Compound 65] please.
## Result < 5.00

## Task For Avi-KRAS G12R (1-169) GppNHp/RAF1 RBD-3×FLAG (52-151) (Homo sapiens, UniProt P01116, G12R), provide pIC50 of CN(C)c1nc(N2C[C@H]3CC[C@@H](C2)N3)c2cc(C(F)(F)F)c(-c3ccc(F)c4sc(N)c(C#N)c34)c(F)c2n1 [Compound 10] please.
## Result < 5.00

## Task For Avi-KRAS G12R (1-169) GppNHp/RAF1 RBD-3×FLAG (52-151) (Homo sapiens, UniProt P01116, G12R), provide pIC50 of N#Cc1c(N)sc2c(F)ccc(-c3c(C(F)(F)F)cc4c(N5CC6CCC(C5)N6)nc(N5CC[C@H](O)C5)nc4c3F)c12 [Compound 4] please.
## Result < 5.00

## Task For Avi-KRAS G12R (1-169) GppNHp/RAF1 RBD-3×FLAG (52-151) (Homo sapiens, UniProt P01116, G12R), provide pIC50 of N#Cc1c(N)sc2c(F)ccc(-c3c(C(F)(F)F)cc4c(N5CC6CCC(C5)N6)nc(OCCC5CCCO5)nc4c3F)c12 (centres unmarked) [Compound 51] please.
## Result < 5.00

## Task For Avi-KRAS G12R (1-169) GppNHp/RAF1 RBD-3×FLAG (52-151) (Homo sapiens, UniProt P01116, G12R), provide pIC50 of N#Cc1c(N)sc2c(F)ccc(-c3c(C(F)(F)F)cc4c(N5CC6CCC(C5)N6)nc(OCCCO)nc4c3F)c12 [Compound 31] please.
## Result < 5.00
